These data points were gathered from ChEMBL document CHEMBL3526049.

Assay: Half life in MRP2 knockout Sprague-Dawley rat at 5 mg/kg, po by LC-MS/MS analysis
Assay type: ADME, organism-based
Set-up: dose 5 mg/kg, route oral
Details: in vivo
VALUE_TYPE: half-life (h)
Give bare numbers, in h.

// query If you can, please state the reported half-life value of "CC(=O)O[C@H]1C(=O)[C@@]2(C)[C@H]([C@H](OC(=O)c3ccccc3)[C@]3(O)C[C@H](OC(=O)[C@H](O)[C@@H](NC(=O)c4ccccc4)c4ccccc4)C(C)=C1C3(C)C)[C@]1(OC(C)=O)CO[C@@H]1C[C@@H]2O" .
// result 9.4

* * *

Test: Oral bioavailability in wild-type Sprague-Dawley rat at 5 mg/kg by LC-MS/MS analysis
Format: ADME, organism-based
Conditions: in vivo
VALUE_TYPE: bioavailability (%)
Give bare numbers, in %.

// query If you can, please state the reported bioavailability value of CC(=O)O[C@H]1C(=O)[C@@]2(C)[C@H]([C@H](OC(=O)c3ccccc3)[C@]3(O)C[C@H](OC(=O)[C@H](O)[C@@H](NC(=O)c4ccccc4)c4ccccc4)C(C)=C1C3(C)C)[C@]1(OC(C)=O)CO[C@@H]1C[C@@H]2O [PACLITAXEL] .
// result 12

* * *

Test: Oral bioavailability in MRP2 knockout Sprague-Dawley rat at 10 mg/kg by LC-MS/MS analysis
Type: ADME, organism-based
Settings: in vivo
VALUE_TYPE: bioavailability
Kindly format the answer as number then unit.

// query If you can, please state the reported bioavailability value of CN(C)C(=O)C(CCN1CCC(O)(c2ccc(Cl)cc2)CC1)(c1ccccc1)c1ccccc1 [LOPERAMIDE] .
// result 60%

* * *

Test: Clearance in BCRP knockout Sprague-Dawley rat at 5 mg/kg, iv by LC-MS/MS analysis
Format: ADME, organism-based
Design: dose 5 mg/kg, route intravenous
Settings: in vivo
VALUE_TYPE: clearance (mL/min/kg)
Numbers only, in mL/min/kg.

// query If you can, please state the reported clearance value of O=C(O)c1cc(/N=N/c2ccc(S(=O)(=O)Nc3ccccn3)cc2)ccc1O [SULFASALAZINE] .
// result 7.8

* * *

Field: Vd. Provide a value for each of the compounds that follow.
Test: Volume of distribution at steady state in MDR1A knockout Sprague-Dawley rat at 1 mg/kg, iv by LC-MS/MS analysis
Assay type: ADME, organism-based
Set-up: dose 1 mg/kg, route intravenous
Details: in vivo, read-out: Vdss
One number for each entry, in L/kg.

COMPOUND: CC(=O)O[C@H]1C(=O)[C@@]2(C)[C@H]([C@H](OC(=O)c3ccccc3)[C@]3(O)C[C@H](OC(=O)[C@H](O)[C@@H](NC(=O)c4ccccc4)c4ccccc4)C(C)=C1C3(C)C)[C@]1(OC(C)=O)CO[C@@H]1C[C@@H]2O
VALUE_TYPE: Vd
ASSAY_RESULT: 38.1

Now for a further compound.
// query If you can, please state the reported Vd value of CN(C)C(=O)C(CCN1CCC(O)(c2ccc(Cl)cc2)CC1)(c1ccccc1)c1ccccc1 [LOPERAMIDE] .
// result 7.9

* * *

Assay: AUC (infinity) in MDR1A knockout Sprague-Dawley rat at 20 mg/kg, po by LC-MS/MS analysis
Format: ADME, organism-based
Set-up: time infinity, dose 20 mg/kg, route oral
Conditions: plasma
VALUE_TYPE: AUC(0-inf) (ng·h/mL)
Give bare numbers, in ng·h/mL.

// query If you can, please state the reported AUC(0-inf) value of "O=C(O)c1cc(/N=N/c2ccc(S(=O)(=O)Nc3ccccn3)cc2)ccc1O" .
// result 711

* * *

Assay: Half life in MRP2 knockout Sprague-Dawley rat at 10 mg/kg, po by LC-MS/MS analysis
Assay type: ADME, organism-based
Parameters: dose 10 mg/kg, route oral
Settings: in vivo
VALUE_TYPE: half-life (h)
Give bare numbers, in h.

// query If you can, please state the reported half-life value of CN(C)C(=O)C(CCN1CCC(O)(c2ccc(Cl)cc2)CC1)(c1ccccc1)c1ccccc1 [LOPERAMIDE] .
// result 13

* * *

Assay: AUC (infinity) in MRP2 knockout Sprague-Dawley rat at 1 mg/kg, iv by LC-MS/MS analysis
Assay type: ADME, organism-based, Plasma
Design: time infinity, dose 1 mg/kg, route intravenous
Details: Sprague-Dawley, plasma
VALUE_TYPE: AUC(0-inf) (ng·h/mL)
Answers are plain numbers, in ng·h/mL.

// query If you can, please state the reported AUC(0-inf) value of CN(C)C(=O)C(CCN1CCC(O)(c2ccc(Cl)cc2)CC1)(c1ccccc1)c1ccccc1 [LOPERAMIDE] .
// result 122

* * *

Assay: Cmax in MRP2-deficient Wistar rat at 5 mg/kg, po by LC-MS/MS analysis
Type: ADME, organism-based
Set-up: dose 5 mg/kg, route oral
Settings: in vivo
VALUE_TYPE: Cmax (ng/mL)
One number for each entry, in ng/mL.

// query If you can, please state the reported Cmax value of O=C(O)c1cc(/N=N/c2ccc(S(=O)(=O)Nc3ccccn3)cc2)ccc1O [SULFASALAZINE] .
// result 144

* * *

Experiment: Oral bioavailability in BCRP knockout Sprague-Dawley rat at 10 mg/kg by LC-MS/MS analysis
Type: ADME, organism-based
Details: in vivo
VALUE_TYPE: bioavailability (%)
Give bare numbers, in %.

// query If you can, please state the reported bioavailability value of CN(C)C(=O)C(CCN1CCC(O)(c2ccc(Cl)cc2)CC1)(c1ccccc1)c1ccccc1 [LOPERAMIDE] .
// result 40

* * *

Assay: Volume of distribution at steady state in BCRP knockout Sprague-Dawley rat at 1 mg/kg, iv by LC-MS/MS analysis
Type: ADME, organism-based
Design: dose 1 mg/kg, route intravenous
Conditions: in vivo, read-out: Vdss
Field: Vd. Provide a value for each of the molecules that follow.
Answers are plain numbers, in L/kg.

MOLECULE: CN(C)C(=O)C(CCN1CCC(O)(c2ccc(Cl)cc2)CC1)(c1ccccc1)c1ccccc1 [LOPERAMIDE]
Vd (L/kg): 11.5

// query If you can, please state the reported Vd value of "CC(=O)O[C@H]1C(=O)[C@@]2(C)[C@H]([C@H](OC(=O)c3ccccc3)[C@]3(O)C[C@H](OC(=O)[C@H](O)[C@@H](NC(=O)c4ccccc4)c4ccccc4)C(C)=C1C3(C)C)[C@]1(OC(C)=O)CO[C@@H]1C[C@@H]2O" .
// result 29.1

* * *

Assay: AUC (infinity) in MDR1A knockout Sprague-Dawley rat at 1 mg/kg, iv by LC-MS/MS analysis
Assay type: ADME, organism-based
Parameters: time infinity, dose 1 mg/kg, route intravenous
Details: plasma
Field: AUC(0-inf). Provide a value for each of the compounds that follow.
One number for each entry, in ng·h/mL.

COMPOUND: CC(=O)O[C@H]1C(=O)[C@@]2(C)[C@H]([C@H](OC(=O)c3ccccc3)[C@]3(O)C[C@H](OC(=O)[C@H](O)[C@@H](NC(=O)c4ccccc4)c4ccccc4)C(C)=C1C3(C)C)[C@]1(OC(C)=O)CO[C@@H]1C[C@@H]2O
ASSAY_RESULT: 303

Now for a further compound.
// query If you can, please state the reported AUC(0-inf) value of CN(C)C(=O)C(CCN1CCC(O)(c2ccc(Cl)cc2)CC1)(c1ccccc1)c1ccccc1 [LOPERAMIDE] .
// result 243

* * *

Assay: Cmax in BCRP knockout Sprague-Dawley rat at 10 mg/kg, po by LC-MS/MS analysis
Format: ADME, organism-based
Set-up: dose 10 mg/kg, route oral
Details: in vivo
VALUE_TYPE: Cmax (ng/mL)
Answers are plain numbers, in ng/mL.

// query If you can, please state the reported Cmax value of CN(C)C(=O)C(CCN1CCC(O)(c2ccc(Cl)cc2)CC1)(c1ccccc1)c1ccccc1 [LOPERAMIDE] .
// result 69

* * *

Test: Half life in MRP2 knockout Sprague-Dawley rat at 1 mg/kg, iv by LC-MS/MS analysis
Format: ADME, organism-based
Parameters: dose 1 mg/kg, route intravenous
Conditions: in vivo
VALUE_TYPE: half-life
Kindly format the answer as number then unit.

// query If you can, please state the reported half-life value of CN(C)C(=O)C(CCN1CCC(O)(c2ccc(Cl)cc2)CC1)(c1ccccc1)c1ccccc1 [LOPERAMIDE] .
// result 1.1 h

* * *

Assay: Drug excretion in bile duct-cannulated MDR1A knockout Sprague-Dawley rat bile at 1 mg/kg, iv up to 24 hrs
Assay type: ADME, organism-based
Set-up: dose 1 mg/kg, route intravenous
Settings: read-out: Drug excretion
VALUE_TYPE: dose excreted at 24 h

// query If you can, please state the reported dose excreted at 24 h value of "CC(=O)O[C@H]1C(=O)[C@@]2(C)[C@H]([C@H](OC(=O)c3ccccc3)[C@]3(O)C[C@H](OC(=O)[C@H](O)[C@@H](NC(=O)c4ccccc4)c4ccccc4)C(C)=C1C3(C)C)[C@]1(OC(C)=O)CO[C@@H]1C[C@@H]2O" .
// result 0%
